Consider the following compounds; for each one, report its inhibition of aggregation.
# experimentDescription: polyglutamine aggregate formation blockers (AID 1604)
# measurementContext: polyglutamine-induced protein aggregation inhibition assay; stronger effect = higher value; concentration not given here
Numbers only, in %.

Observe how each entry below is paired with its result.
compound	inhibition of aggregation [%]
O=C(O)c1ccccc1OP(=O)(O)O	61
Cc1ncc([N+](=O)[O-])n1CCO	58.7
O=C(O)CCCCCCCC(=O)O	79.6

Record inhibition of aggregation for all entries; do not skip any.
1. Cc1cc(C(C)(C)C)c(O)c(C)c1CC1=NCCN1
2. CCCCC(CC)CN1CN(CC(CC)CCCC)CC(C)(N)C1 (stereo unspecified)
3. Cc1cccc(C)c1OCC(C)N (stereo unspecified)

1: 6.98; 2: 1.83; 3: 45.1

----------
Consider the following compounds; for each one, report its fold change.
# experimentDescription: viability loss with induced miR-34 in A549 – imaging, A549 dox-inducible miR-34, nuclei and caspase counts, primary screen (AID 1347080)
# measurementContext: A549 miR-34 inducible, Hoechst nuclei count, 48 h; measured here: relative caspase fold change +Dox/-Dox
Answers are plain numbers.

compound	measuredResult
CNC[C@H](O)[C@@H](O)[C@H](O)[C@H](O)CO	1.1
CC(Cc1cccc(C(F)(F)F)c1)NCCOC(=O)c1ccccc1 (configuration not stated)	1.56
CC(=O)OCC(=O)[C@@]1(O)[C@H](C)C[C@H]2[C@@H]3CCC4=CC(=O)C=C[C@]4(C)[C@@]3(F)[C@@H](O)C[C@@]21C	1.03
CO[C@@]1(NC(=O)C(C(=O)O)c2ccc(O)cc2)C(=O)N2C(C(=O)O)=C(CSc3nnnn3C)CO[C@@H]21 (some centres not stated)	0.729
O=c1[nH]c(=O)n([C@H]2C[C@H](O)[C@@H](CO)O2)cc1F	0.977

Record fold change for all entries; do not skip any.
1. S=P(N1CC1)(N1CC1)N1CC1
2. CCCCC1(COC(=O)CCC(=O)O)C(=O)N(c2ccccc2)N(c2ccccc2)C1=O
3. O=C(CCCCC(=O)Nc1c(I)cc(I)c(C(=O)O)c1I)Nc1c(I)cc(I)c(C(=O)O)c1I
4. C[C@@H]1CN(c2c(F)c(N)c3c(=O)c(C(=O)O)cn(C4CC4)c3c2F)C[C@H](C)N1
5. CCCCC(CC)CN1CN(CC(CC)CCCC)CC(C)(N)C1 (configuration not stated)
6. CCOc1ccc(Cc2nccc3cc(OCC)c(OCC)cc23)cc1OCC

1: 2.37; 2: 1.12; 3: 1.51; 4: 1.37; 5: 1.46; 6: 1.32

Recorded fold change for CO/N=C1\CN(c2nc3c(cc2F)c(=O)c(C(=O)O)cn3C2CC2)CC1CN (configuration not stated) , please?
1.93

----------
Consider the following molecules; for each one, report its viability.
# experimentDescription: P. berghei load reduction in hepatocytes – cell-based, HepG2, luciferase luminescence, HepG2 viability, primary screen (AID 624349);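 further: 100% = mean of DMSO negative control wells on the same plate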
# measurementContext: P. berghei liver stage in HepG2, luciferase luminescence, concentration not given here; measured here: HepG2 viability without parasites
Answers are plain numbers, in %.

molecule	viability (%)
CCOc1cc(N)c(Cl)cc1C(=O)NCC1CN(Cc2ccc(F)cc2)CCO1 (centres undefined)	70.5

Record viability for all entries; do not skip any.
1. Oc1c(Br)cc(Br)c2cccnc12
2. CC(N)C(=O)OC(C)(C)Cc1ccc(Cl)cc1 (centres undefined)
3. CC(C)c1ccc2oc3nc(N)c(C(=O)O)cc3c(=O)c2c1
4. CC(=O)[C@@]1(O)CC[C@H]2[C@@H]3C[C@H](C)C4=CC(=O)C=C[C@]4(C)[C@@]3(F)[C@@H](O)C[C@@]21C
5. Nc1c2c(nc3c1CCC3)CCCC2
6. CC(C(=O)O)c1ccc(CC2CCCC2=O)cc1 (centres undefined)
7. CC(C)(C)NC(=O)[C@@H]1CN(Cc2cccnc2)CCN1C[C@@H](O)C[C@@H](Cc1ccccc1)C(=O)N[C@H]1c2ccccc2C[C@H]1O

68.8
87.1
67.7
102
68.8
79.1
71

Recorded viability for `NCCS(=O)(=O)O` , please?
97.6
